Tested on: Escherichia coli TOP10;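 further: peptides expressed intracellularly from a pBAD plasmid library in pooled LB shake-flask culture, induced with 0.3% L-arabinose, DNA abundance read by NGS, three biological replicates, DESeq2 with apeglm shrinkage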
Assay: shrunken log2 fold change of peptide-encoding DNA abundance (4.5 h post-induction vs induction); higher = less antimicrobial activity (less host growth inhibition)
Conditions: time post-induction: 4.5 h; library: site-saturation at positions 5, 18, 19, 20
Endpoint label: shrunken log2 fold change

- Biopolymer sequence: "RRIRKRPPRLPRPRPRPARIPRP"
  Study system: "Escherichia coli TOP10"
  shrunken log2 fold change: 0.0491
- Biopolymer sequence: "RRIRHRPPRLPRPRPRPNEQPRP"
  Study system: "Escherichia coli TOP10"
  shrunken log2 fold change: -0.0176
- Biopolymer sequence: "RRIRMRPPRLPRPRPRPTGAPRP"
  Study system: "Escherichia coli TOP10"
  shrunken log2 fold change: 1.25
- Biopolymer sequence: "RRIRLRPPRLPRPRPRPHGAPRP"
  Study system: "Escherichia coli TOP10"
  shrunken log2 fold change: 0.0606
- Biopolymer sequence: "RRIRVRPPRLPRPRPRPSTLPRP"
  Study system: "Escherichia coli TOP10"
  shrunken log2 fold change: -0.166
- Biopolymer sequence: "RRIRMRPPRLPRPRPRPVCFPRP"
  Study system: "Escherichia coli TOP10"
  shrunken log2 fold change: 0.126

Quick one: give me shrunken log2 fold change for each item below, same order please.
1. RRIRWRPPRLPRPRPRPIEPPRP
2. RRIRVRPPRLPRPRPRPAYVPRP

Result:
1: 0.0341; 2: -0.17
